Value source: patent EP4759807A1

Biological target: IRAK4 (Homo sapiens, UniProt Q9NWZ3)
Sequence (Q9NWZ3 1-460): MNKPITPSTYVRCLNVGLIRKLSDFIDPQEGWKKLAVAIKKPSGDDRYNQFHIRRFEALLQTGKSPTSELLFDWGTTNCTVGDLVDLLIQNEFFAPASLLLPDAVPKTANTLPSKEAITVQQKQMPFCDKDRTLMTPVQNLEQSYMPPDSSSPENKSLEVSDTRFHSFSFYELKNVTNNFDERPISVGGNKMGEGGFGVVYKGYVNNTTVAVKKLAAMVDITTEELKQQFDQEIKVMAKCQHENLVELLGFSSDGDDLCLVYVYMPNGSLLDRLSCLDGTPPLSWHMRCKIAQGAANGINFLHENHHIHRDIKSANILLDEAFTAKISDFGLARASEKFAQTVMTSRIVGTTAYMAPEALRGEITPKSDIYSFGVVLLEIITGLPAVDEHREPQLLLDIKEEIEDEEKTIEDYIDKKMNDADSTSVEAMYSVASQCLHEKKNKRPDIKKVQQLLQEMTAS
Experiment: WB detection of proteolysis (Western Blot, THP-1 cells)
Format: cell-based
Conditions: Western Blot, THP-1 cells, 24 h; read-out: Dmax
Experimental Endpoint: Dmax

[[record]]
compound = "C[C@H]1CN(C[C@H]2CC[C@H](n3cc(-n4cc(-c5cnn6ccc(N[C@@H]7CCCC[C@@H]7O)nc56)nn4)c(C(F)F)n3)CC2)CCN1C1CCN(c2cccc3c2n(C)c(=O)n3C2CCC(=O)NC2=O)CC1 (stereo partly drawn)"
system_name = "IRAK4 (Homo sapiens, UniProt Q9NWZ3)"
experimental_endpoint = "Dmax"
measured = "> 70%"

[[record]]
compound = "Cn1c(=O)n(C2CCC(=O)NC2=O)c2cccc(N[C@H]3CC[C@@H](N(C)C[C@H]4CC[C@H](n5cc(-n6cc(-c7cnn8ccc(N9CCOCC9)nc78)nn6)c(C(F)F)n5)CC4)CC3)c21 (stereo partly drawn)"
system_name = "IRAK4 (Homo sapiens, UniProt Q9NWZ3)"
experimental_endpoint = "Dmax"
measured = "60 to 70%"

[[record]]
compound = "Cn1c(=O)n(C2CCC(=O)NC2=O)c2cccc(N3CCC(N4CCN(C[C@H]5CC[C@H](n6cc(-n7cc(-c8cnn9ccc(N%10CCC[C@H](O)C%10)nc89)nn7)c(C(F)F)n6)CC5)CC4)CC3)c21 (stereo partly drawn)"
system_name = "IRAK4 (Homo sapiens, UniProt Q9NWZ3)"
experimental_endpoint = "Dmax"
measured = "> 70%"

[[record]]
compound = "Cn1c(=O)n(C2CCC(=O)NC2=O)c2cccc(N3CCC4(CCN(C[C@H]5CC[C@H](n6cc(-n7cc(-c8cnn9ccc(N%10CCOCC%10)nc89)nn7)c(C(F)F)n6)CC5)CC4)CC3)c21 (stereo partly drawn)"
system_name = "IRAK4 (Homo sapiens, UniProt Q9NWZ3)"
experimental_endpoint = "Dmax"
measured = "60 to 70%"

[[record]]
compound = "Cn1c(=O)n(C2CCC(=O)NC2=O)c2cccc(N3CCC4(CCN(C[C@H]5CC[C@H](n6cc(-n7cc(-c8cnn9ccc(N%10CCC[C@@H](O)C%10)nc89)nn7)c(C(F)F)n6)CC5)C4)CC3)c21 (stereo partly drawn)"
system_name = "IRAK4 (Homo sapiens, UniProt Q9NWZ3)"
experimental_endpoint = "Dmax"
measured = "> 70%"

[[record]]
compound = "Cn1c(=O)n(C2CCC(=O)NC2=O)c2cccc(N3CCC(CN4CCC5(CCC(n6cc(-n7cc(-c8cnn9ccc(N[C@@H]%10CCCC[C@@H]%10O)nc89)nn7)c(C(F)F)n6)CC5)CC4)CC3)c21 (stereo partly drawn)"
system_name = "IRAK4 (Homo sapiens, UniProt Q9NWZ3)"
experimental_endpoint = "Dmax"
measured = "> 70%"

[[record]]
compound = "Cn1c(=O)n(C2CCC(=O)NC2=O)c2cccc(N3CCC(CN4CCC5(CCC(n6cc(-n7cc(-n8ccc9cc(C(N)=O)cnc98)nn7)c(C(F)F)n6)CC5)CC4)CC3)c21 (stereo not drawn)"
system_name = "IRAK4 (Homo sapiens, UniProt Q9NWZ3)"
experimental_endpoint = "Dmax"
measured = "< 60%"

[[record]]
compound = "Cn1c(=O)n(C2CCC(=O)NC2=O)c2cccc(N3CCC4(CCN(C[C@H]5CC[C@H](n6cc(-n7cc(-c8ccc9cc(C(N)=O)cnn89)nn7)c(C(F)F)n6)CC5)CC4)C3)c21 (stereo partly drawn)"
system_name = "IRAK4 (Homo sapiens, UniProt Q9NWZ3)"
experimental_endpoint = "Dmax"
measured = "> 70%"

[[record]]
compound = "C[C@H]1CN(c2cccc3c2n(C)c(=O)n3C2CCC(=O)NC2=O)CCN1C[C@H]1CC[C@H](n2cc(-n3cc(-c4ccc5cc(C(N)=O)cnn45)nn3)c(C(F)F)n2)CC1 (stereo partly drawn)"
system_name = "IRAK4 (Homo sapiens, UniProt Q9NWZ3)"
experimental_endpoint = "Dmax"
measured = "> 70%"

[[record]]
compound = "Cn1c(=O)n(C2CCC(=O)NC2=O)c2cccc(N3CCN(C4CCN(C[C@H]5CC[C@H](n6cc(-n7cc(-c8cnn9ccc(N[C@@H]%10CCCC[C@@H]%10O)nc89)nn7)c(C(F)F)n6)CC5)CC4)CC3)c21 (stereo partly drawn)"
system_name = "IRAK4 (Homo sapiens, UniProt Q9NWZ3)"
experimental_endpoint = "Dmax"
measured = "> 70%"

[[record]]
compound = "C[C@@H]1CC2(CCN(c3cccc4c3n(C)c(=O)n4C3CCC(=O)NC3=O)CC2)CN1C[C@H]1CC[C@H](n2cc(-n3cc(-c4cnn5ccc(N6CCC[C@H](O)C6)nc45)nn3)c(C(F)F)n2)CC1 (stereo partly drawn)"
system_name = "IRAK4 (Homo sapiens, UniProt Q9NWZ3)"
experimental_endpoint = "Dmax"
measured = "> 70%"

[[record]]
compound = "Cn1c(=O)n(C2CCC(=O)NC2=O)c2cccc(N3CCC(N4CCN(C[C@H]5CC[C@H](n6cc(-n7cc(-c8cnn9ccc(N[C@@H]%10CCCC[C@@H]%10O)nc89)nn7)c(C(F)F)n6)CC5)CC4)CC3)c21 (stereo partly drawn)"
system_name = "IRAK4 (Homo sapiens, UniProt Q9NWZ3)"
experimental_endpoint = "Dmax"
measured = "> 70%"

[[record]]
compound = "Cn1c(=O)n(C2CCC(=O)NC2=O)c2cccc(N3CCN(C[C@H]4CC[C@H](n5cc(-n6cc(-c7cnn8ccc(N9CCC[C@H](O)C9)nc78)nn6)c(C(F)F)n5)CC4)CC3)c21 (stereo partly drawn)"
system_name = "IRAK4 (Homo sapiens, UniProt Q9NWZ3)"
experimental_endpoint = "Dmax"
measured = "> 70%"

[[record]]
compound = "Cn1c(=O)n(C2CCC(=O)NC2=O)c2cccc(N3CCC4(CCN(C[C@H]5CC[C@H](n6cc(-n7cc(-c8ccc9cc(C(N)=O)cnn89)nn7)c(C(F)F)n6)CC5)CC4)CC3)c21 (stereo partly drawn)"
system_name = "IRAK4 (Homo sapiens, UniProt Q9NWZ3)"
experimental_endpoint = "Dmax"
measured = "> 70%"

[[record]]
compound = "C[C@H]1CN(c2ccn3ncc(-c4cn(-c5cn([C@H]6CC[C@H](CN7CCC(N8CCN(c9cccc%10c9n(C)c(=O)n%10C9CCC(=O)NC9=O)CC8)CC7)CC6)nc5C(F)F)nn4)c3n2)CCO1 (stereo partly drawn)"
system_name = "IRAK4 (Homo sapiens, UniProt Q9NWZ3)"
experimental_endpoint = "Dmax"
measured = "> 70%"

[[record]]
compound = "Cn1c(=O)n(C2CCC(=O)NC2=O)c2cccc(N3CCC4(CCN(C[C@H]5CC[C@H](n6cc(-n7cc(-c8cnn9ccc(N%10CCC(C)(O)CC%10)nc89)nn7)c(C(F)F)n6)CC5)CC4)C3)c21 (stereo partly drawn)"
system_name = "IRAK4 (Homo sapiens, UniProt Q9NWZ3)"
experimental_endpoint = "Dmax"
measured = "< 60%"

[[record]]
compound = "Cn1c(=O)n(C2CCC(=O)NC2=O)c2cccc(N3CCC4(CCN(C[C@H]5CC[C@H](n6cc(-n7cc(-c8ccc9cc(C(N)=O)cnn89)nn7)c(C(F)F)n6)CC5)C4)CC3)c21 (stereo partly drawn)"
system_name = "IRAK4 (Homo sapiens, UniProt Q9NWZ3)"
experimental_endpoint = "Dmax"
measured = "60 to 70%"

[[record]]
compound = "C[C@H]1COCCN1c1ccn2ncc(-c3cn(-c4cn([C@H]5CC[C@H](CN6CCC7(CC6)CCN(c6cccc8c6n(C)c(=O)n8C6CCC(=O)NC6=O)C7)CC5)nc4C(F)F)nn3)c2n1 (stereo partly drawn)"
system_name = "IRAK4 (Homo sapiens, UniProt Q9NWZ3)"
experimental_endpoint = "Dmax"
measured = "60 to 70%"


---

Listed here: items and their measured DC50.
Biological target: IRAK4 (Homo sapiens)
Test: WB detection of proteolysis (Western Blot, THP-1 cells)
Assay type: cell-based
Settings: Western Blot, THP-1 cells, 24 h; read-out: DC50
Experimental Endpoint: DC50

[[record]]
compound = "C[C@H]1CN(c2cccc3c2n(C)c(=O)n3C2CCC(=O)NC2=O)CCN1C[C@H]1CC[C@H](n2cc(-n3cc(-c4ccc5cc(C(N)=O)cnn45)nn3)c(C(F)F)n2)CC1 (stereo partly drawn) [Example 96]"
system_name = "IRAK4 (Homo sapiens)"
measured = "< 10 nM"

[[record]]
compound = "Cn1c(=O)n(C2CCC(=O)NC2=O)c2cccc(N3CCCN(C[C@H]4CC[C@H](n5cc(-n6cc(-c7ccc8cc(C(N)=O)cnn78)nn6)c(C(F)F)n5)CC4)CC3)c21 (relative stereo) [Example 289]"
system_name = "IRAK4 (Homo sapiens)"
measured = "< 10 nM"

[[record]]
compound = "Cn1c(=O)n(C2CCC(=O)NC2=O)c2cccc(N[C@H]3CC[C@H](N(C)C[C@H]4CC[C@H](n5cc(-n6cc(-c7ccc8cc(C(N)=O)cnn78)nn6)c(C(F)F)n5)CC4)CC3)c21 (stereo partly drawn) [Example 61]"
system_name = "IRAK4 (Homo sapiens)"
measured = "< 10 nM"

